- MEASUREMENT_TARGET: TEAD4 YAP50-100 (Homo sapiens, UniProt Q15561)
- ASSAY_COMMENT: TEAD4-YAP HTRF (TR-FRET) protein-protein interaction assay
- PARTICULARS: TEAD4, YAP peptide 50-100, HTRF; read-out: TEAD4 YAP50-100 HTRF combined: EC50
QUANTITY: EC50 (nM)

COMPOUND: C[C@H]1[C@@H](CF)CN1C(=O)c1c(-c2cnccn2)nn2c(=O)cc(-c3ccc(CC4CCCC4)cc3)[nH]c12 (single isomer, unassigned) [Isomer B, Example 44]
MEASUREMENT_TARGET: TEAD4 YAP50-100 (Homo sapiens, UniProt Q15561)
QUANTITY_UNIT: nM
NUMERIC_READOUT: 20

COMPOUND: C[C@H](CO)c1nn2c(=O)cc(-c3ccc(C4CCCCC4)cc3)[nH]c2c1C(=O)N1CC(CF)C1 (single isomer, unassigned) [Enantiomer A, Example 55]
MEASUREMENT_TARGET: TEAD4 YAP50-100 (Homo sapiens, UniProt Q15561)
QUANTITY_UNIT: nM
NUMERIC_READOUT: 500

[P] CC(C)c1ccc(COc2cc(=O)n3nc(-c4cnccn4)c(C(=O)N4CC(CF)C4)c3[nH]2)cc1
[Q] O=C(c1c(-c2cnco2)nn2c(=O)cc(-c3ccc(C4CCCCC4)cc3)[nH]c12)N1CC(CF)C1
[R] O=C(c1c(-c2nccc(C(F)(F)F)n2)nn2c(=O)cc(-c3ccc(C4CCCCC4)cc3)[nH]c12)N1CC(CF)C1
[S] Cc1nccnc1-c1nn2c(=O)cc(-c3ccc(OC(c4ccccc4)C(F)(F)F)cc3)[nH]c2c1C(=O)N1C[C@H](CF)[C@@H]1C (single isomer, unassigned) [Final product obtained using Enantiomer B from Step 1, Example 56]
Prompt: Could you please order the items by EC50, going from the lowest number to the highest? The reply should contain the labels ordered as requested.
Completion: P, Q, R, S

----------
- MEASUREMENT_TARGET: TEAD2 YAP50-100 (Homo sapiens, UniProt Q15562)
- Sequence (Q15562 217-447): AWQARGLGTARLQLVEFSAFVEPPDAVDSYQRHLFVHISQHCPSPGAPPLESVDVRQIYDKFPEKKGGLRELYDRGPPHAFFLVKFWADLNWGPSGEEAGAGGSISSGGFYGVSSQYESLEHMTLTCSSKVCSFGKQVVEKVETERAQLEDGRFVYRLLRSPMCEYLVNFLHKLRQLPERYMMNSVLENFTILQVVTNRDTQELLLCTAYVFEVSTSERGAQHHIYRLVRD
- ASSAY_COMMENT: TEAD2-YAP HTRF (TR-FRET) protein-protein interaction assay
- Format: binding
- PARTICULARS: TEAD2, YAP peptide 50-100, HTRF
QUANTITY: TEAD2 YAP50-100 HTRF combined: Max % Inhibition (%)

COMPOUND: O=C(c1c(-c2cnccn2)nn2c(=O)cc(-c3ccc(C4CCCCC4)cc3)[nH]c12)N1CC(CF)C1
MEASUREMENT_TARGET: TEAD2 YAP50-100 (Homo sapiens, UniProt Q15562)
QUANTITY_UNIT: %
NUMERIC_READOUT: 61.6

COMPOUND: Cc1nccnc1-c1nn2c(=O)cc(-c3ccc(C4CCCCC4)cc3)[nH]c2c1C(=O)N(C)C
MEASUREMENT_TARGET: TEAD2 YAP50-100 (Homo sapiens, UniProt Q15562)
QUANTITY_UNIT: %
NUMERIC_READOUT: 53.5

COMPOUND: CCCCCCCCCc1cc(=O)n2nc(-c3nccnc3C)c(C(=O)N3C[C@H](CF)[C@@H]3C)c2[nH]1
MEASUREMENT_TARGET: TEAD2 YAP50-100 (Homo sapiens, UniProt Q15562)
QUANTITY_UNIT: %
NUMERIC_READOUT: 64.0

COMPOUND: [2H]C1([2H])C([2H])([2H])C([2H])([2H])C([2H])(c2ccc(-c3cc(=O)n4nc(-c5nccnc5C)c(C(=O)N5C[C@H](CF)[C@@H]5C)c4[nH]3)cc2)C([2H])([2H])C1([2H])[2H]
MEASUREMENT_TARGET: TEAD2 YAP50-100 (Homo sapiens, UniProt Q15562)
QUANTITY_UNIT: %
NUMERIC_READOUT: 73.0

COMPOUND: C[C@@H]1[C@H](CF)CN1C(=O)c1c(-c2ncccn2)nn2c(=O)cc(-c3ccc(CC4CCCC4)cc3)[nH]c12 (single isomer, unassigned) [Isomer B, Example 43]
MEASUREMENT_TARGET: TEAD2 YAP50-100 (Homo sapiens, UniProt Q15562)
QUANTITY_UNIT: %
NUMERIC_READOUT: 73.0

COMPOUND: Cc1nccnc1-c1nn2c(=O)cc(-c3ccc(C4(F)CCCCC4)cc3)[nH]c2c1C(=O)N1CC(CF)C1
MEASUREMENT_TARGET: TEAD2 YAP50-100 (Homo sapiens, UniProt Q15562)
QUANTITY_UNIT: %
NUMERIC_READOUT: 61.5

----------
- MEASUREMENT_TARGET: TEAD4 TAZ (amino acids 13-57) (Homo sapiens, UniProt Q15561)
- Sequence (Q15561 217-434 limits assumed): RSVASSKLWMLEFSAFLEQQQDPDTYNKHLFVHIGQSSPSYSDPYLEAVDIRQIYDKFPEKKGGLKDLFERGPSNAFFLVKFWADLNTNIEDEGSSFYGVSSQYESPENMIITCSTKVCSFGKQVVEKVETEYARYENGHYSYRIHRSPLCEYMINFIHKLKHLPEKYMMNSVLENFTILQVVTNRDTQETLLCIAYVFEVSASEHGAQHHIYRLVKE
- ASSAY_COMMENT: TEAD4-TAZ HTRF (TR-FRET) protein-protein interaction assay
- PARTICULARS: TEAD4-TAZ HTRF, TR-FRET 665 nm/615 nm; read-out: TEAD4 TAZ HTRF combined: EC50
pEC50: −log10 of the molar value.
QUANTITY: pEC50

Solved cases below.
COMPOUND: Cc1c(-c2nn3c(=O)cc(-c4ccc(C5CCCCC5)cc4)[nH]c3c2C(=O)N2CC(CF)C2)ncn1C [Compound 30]
pEC50: 6.92
--
COMPOUND: O=C(c1c(-c2ncccn2)nn2c(=O)cc(-c3ccc(C4CCCCC4)cc3)[nH]c12)N1CC(CF)C1 [Compound 15]
pEC50: 7.70

[P] CN(C)C(=O)c1nn2c(=O)cc(-c3ccc(CC4CCCC4)cc3)[nH]c2c1C(=O)N1CC(CF)C1 [Compound 2]
[Q] O=C(c1c(-c2cnccn2)nn2c(=O)cc(-c3ccc(CC4CCCC4)cc3)[nH]c12)N1CC(CF)C1 [Compound 25]
[R] Cc1nccnc1-c1nn2c(=O)cc(-c3ccc(C4CCCC4)cc3)[nH]c2c1C(=O)N1C[C@H](CF)[C@@H]1C [Compound 69]
[S] C[C@H]1[C@@H](CF)CN1C(=O)c1c(-c2ncccn2)nn2c(=O)cc(-c3ccc(C4CCCCC4)cc3)[nH]c12 (single isomer, unassigned) [Isomer B, Example 40]
[T] Cc1nccnc1-c1nn2c(=O)cc(-c3ccc(CC(C)(C)C)cc3)[nH]c2c1C(=O)N1C[C@H](CF)[C@@H]1C (racemic) [Compound 73]
Prompt: List from greatest to least pEC50. The reply should contain the labels ordered as requested.
Completion: Q, T, R, P, S

----------
- MEASUREMENT_TARGET: TEAD3 YAP50-100 (Homo sapiens)
- Sequence (Q99594 173-435 limits assumed): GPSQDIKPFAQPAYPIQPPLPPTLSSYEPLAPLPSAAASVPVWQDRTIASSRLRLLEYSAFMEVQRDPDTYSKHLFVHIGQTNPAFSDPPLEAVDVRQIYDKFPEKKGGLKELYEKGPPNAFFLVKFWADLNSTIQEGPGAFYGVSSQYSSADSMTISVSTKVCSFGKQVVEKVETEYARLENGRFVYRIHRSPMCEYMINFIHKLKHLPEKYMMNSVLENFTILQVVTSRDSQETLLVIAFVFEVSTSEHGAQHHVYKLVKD
- ASSAY_COMMENT: TEAD3-YAP HTRF (TR-FRET) protein-protein interaction assay
- PARTICULARS: TEAD3, YAP peptide 50-100, HTRF; read-out: TEAD3 YAP50-100 HTRF combined: EC50
- Procedure: Purified His-tagged TEAD protein (YAP Binding Domain, amino acids 217-447) is pre-incubated with Europium labelled anti-His antibody tracer (Perkin Elmer Cat #AD0110). […] After 60 minutes, the plate is read on a plate reader using TR-FRET mode with wavelengths of 665 nm/615 nm. […] The potency of compounds as YAP:TEAD or TAZ:TEAD protein-protein interaction (PPi) inhibitors is determined by an IC50 or EC50 value generated using a non-linear four parameter curve fit.
QUANTITY: EC50 (nM)

STRUCTURE: CC(C)c1ccnc(-c2nn3c(=O)cc(-c4ccc(C5CCCCC5)cc4)[nH]c3c2C(=O)N2CC(CF)C2)n1
EC50, nM: 120

[P] CN(C)C(=O)c1nn2c(=O)cc(-c3ccc(C4CCCCC4)c(F)c3)[nH]c2c1C(=O)N1CC(CF)C1
[Q] CN(C)C(=O)c1nn2c(=O)cc(-c3ccc(C4CCCCC4)cc3)[nH]c2c1C(=O)N1CC(CF)C1
[R] Cc1nccnc1-c1nn2c(=O)cc(-c3ccc(O[C@@H](c4ccccc4)C(F)(F)F)cc3)[nH]c2c1C(=O)N1CC(CF)C1
Prompt: List from greatest to least EC50. The reply should contain the labels ordered as requested.
Completion: R, Q, P

----------
- MEASUREMENT_TARGET: TEAD1 TAZ (amino acids 13-57) (Homo sapiens)
- Sequence (P28347 167-426 limits assumed): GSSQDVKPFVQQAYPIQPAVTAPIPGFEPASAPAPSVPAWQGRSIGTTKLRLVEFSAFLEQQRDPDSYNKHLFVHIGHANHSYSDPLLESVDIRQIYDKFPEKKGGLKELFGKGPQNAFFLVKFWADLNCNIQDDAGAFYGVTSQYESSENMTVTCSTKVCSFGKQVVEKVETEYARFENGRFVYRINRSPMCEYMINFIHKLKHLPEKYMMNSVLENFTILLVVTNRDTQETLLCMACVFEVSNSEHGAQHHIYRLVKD
- ASSAY_COMMENT: TEAD1-TAZ HTRF (TR-FRET) protein-protein interaction assay
- PARTICULARS: TEAD1-TAZ HTRF, TR-FRET 665 nm/615 nm; read-out: TEAD1 TAZ HTRF combined: EC50
- Procedure: Purified His-tagged TEAD protein (YAP Binding Domain, amino acids 217-447) is pre-incubated with Europium labelled anti-His antibody tracer (Perkin Elmer Cat #AD0110). […] After 60 minutes, the plate is read on a plate reader using TR-FRET mode with wavelengths of 665 nm/615 nm. […] The potency of compounds as YAP:TEAD or TAZ:TEAD protein-protein interaction (PPi) inhibitors is determined by an IC50 or EC50 value generated using a non-linear four parameter curve fit.
pEC50: −log10 of the molar value.
QUANTITY: pEC50

Solved cases below.
MOLECULE: O=C(c1c(-c2ncccn2)nn2c(=O)cc(-c3ccc(C4(C5CCCC5)CC4)cc3)[nH]c12)N1CC(CF)C1 [Compound 57]
pEC50: 7.15

MOLECULE: CN(C)C(=O)c1nn2c(=O)cc(-c3ccc(C4CCCCC4)cc3)[nH]c2c1C(=O)N1CC(CF)C1 [Compound 1]
pEC50: 7.05

MOLECULE: Cc1nccnc1-c1nn2c(=O)cc(-c3ccc(C4CCCC4)cc3)[nH]c2c1C(=O)N1C[C@H](CF)[C@@H]1C [Compound 69]
pEC50: 7.30

MOLECULE: CC(C)c1ccc(COc2cc(=O)n3nc(-c4cnccn4)c(C(=O)N4CC(CF)C4)c3[nH]2)cc1 [Compound 52]
pEC50: 7.22

MOLECULE: C[C@@H]1[C@H](CF)CN1C(=O)c1c(C(=O)N(C)C)nn2c(=O)cc(-c3ccc(C4CCCCC4)cc3)[nH]c12 [Compound 6]
pEC50: 6.28

[1] Cc1cnc(-c2nn3c(=O)cc(-c4ccc(C5CCCCC5)cc4)[nH]c3c2C(=O)N2CC(CF)C2)cn1 [Compound 26]
[2] Cc1nccnc1-c1nn2c(=O)cc(-c3ccc(CC4CCCC4)cc3)[nH]c2c1C(=O)N1C[C@H](CF)[C@@H]1C (single isomer, unassigned) [Isomer B, Example 42]
Prompt: Of 1 and 2 , whose reported pEC50 is the larger number? Write down the label of the entry you select.
Completion: 2
